The values you see were collected from PubChem BioAssay AID1963983.

tested on: 186277-243-T-J2-PDC multi-cell spheroid viability; assay: Anticancer human tumor 186277-243-T-J2-PDC patient-derived colon adenocarcinoma cell line growth inhibition [PI3K]; details: curve of first compound; second compound 3.16 µM
pIC50: −log10 of the molar value.
REPORTED PROPERTY: pIC50

Prompt line: Any idea what its pIC50 is? The compound is C=CC(=O)N1CCN(c2nc(=O)n(-c3c(C)ccnc3C(C)C)c3nc(-c4c(O)cccc4F)c(F)cc23)C(C)C1 (stereo not given) + CC(Nc1ncnc2nc[nH]c12)c1cc2cccc(Cl)c2c(=O)n1-c1ccccc1
Response line: < 5.00

Prompt line: Same for Cn1ncnc1[C@H]1c2n[nH]c(=O)c3cc(F)cc(c23)N[C@@H]1c1ccc(F)cc1 + CC(Nc1ncnc2nc[nH]c12)c1cc2cccc(Cl)c2c(=O)n1-c1ccccc1
Response line: < 7.00

Prompt line: Same for CC(=O)c1c(C)c2cnc(Nc3ccc(N4CCNCC4)cn3)nc2n(C2CCCC2)c1=O + CC(Nc1ncnc2nc[nH]c12)c1cc2cccc(Cl)c2c(=O)n1-c1ccccc1
Response line: < 7.00

Prompt line: Same for CCN1CCN(Cc2ccc(Nc3ncc(F)c(-c4cc(F)c5nc(C)n(C(C)C)c5c4)n3)nc2)CC1 + CC(Nc1ncnc2nc[nH]c12)c1cc2cccc(Cl)c2c(=O)n1-c1ccccc1
Response line: < 6.00

Prompt line: Same for CCN1CCN(Cc2ccc(Nc3ncc(F)c(-c4cc(F)c5nc(C)n(C(C)C)c5c4)n3)nc2)CC1 + Cc1nc(NC(=O)N2CCCC2C(N)=O)sc1-c1ccnc(C(C)(C)C(F)(F)F)c1
Response line: > 8.50

###

tested on: 186277-243-T-J2-PDC multi-cell spheroid viability; assay: Anticancer human tumor 186277-243-T-J2-PDC cell line growth inhibition [PI3K]; settings: curve of first compound; second compound 0.1 µM;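 further: spheroids exposed to compounds for seven days before viability reading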
REPORTED PROPERTY: IC50

Prompt line: Any idea what its IC50 is? The compound is CC(Cn1ccc(-c2ccc(C#N)c(Cl)c2)n1)NC(=O)c1cc(C(C)O)[nH]n1 (stereo not drawn) + CC(Nc1ncnc2nc[nH]c12)c1cc2cccc(Cl)c2c(=O)n1-c1ccccc1
Response line: > 10 µM

Prompt line: Same for CC(=O)c1c(C)c2cnc(Nc3ccc(N4CCNCC4)cn3)nc2n(C2CCCC2)c1=O + CC(Nc1ccc2c(c1)OCCn1cc(N3C(=O)OCC3C(F)F)nc1-2)C(N)=O
Response line: > 0.1 µM

Prompt line: Same for C[C@@H](NC(=O)c1ncnc(N)c1Cl)c1ncc(C(=O)Nc2cc(C(F)(F)F)c(Cl)cn2)s1 + CC(Nc1ncnc2nc[nH]c12)c1cc2cccc(Cl)c2c(=O)n1-c1ccccc1
Response line: > 10 µM
